- System: Lefty1
- assay.procedure: Lefty1 binders on small-molecule microarrays, primary screen, biochemical, small-molecule microarray, 635/667 nm fluorescence (AID 1139)
- condition.notes: small-molecule microarray binding, fluorescence 635/667; higher = more signal
Rule: true (1) for composite z-score not less than 0.3, false (0) for anything less.

> print(dat)
                                   molecule  qualitative.label
1  CC(C)CON=C1C[C@@H](O)[C@@H](O)[C@@H]2[C@@H]3C(=O)N(c4cccc(Oc5ccccc5)c4)C(=O)[C@@H]3CC[C@H]12           true (1)
2  CCCNC(=O)OC[C@H]1O[C@H](CCON=C(C)CCN2CCc3nc(-c4ccccc4)c(-c4ccccc4)cc3C2)C=C[C@@H]1Oc1ccc(OC)cc1          false (0)
3  CO[C@@H]1COC(=O)CC=C[C@H](C)COC(=O)[C@H](C)NC(=O)CC=C[C@H]1C           true (1)
4  CCCNC(=O)OC[C@H]1O[C@H](CCON=C(C)CCC(=O)OC[C@H]2O[C@H](C#Cc3ccccc3)C=C[C@@H]2Oc2ccc(C)cc2)C=C[C@@H]1Oc1ccc(OC)cc1          false (0)
5  C[C@@H]1CC[C@@H](C(=O)O)N[C@H]1c1ccc(-c2ccco2)cc1           true (1)
6  Cc1cc2c(nc1C)CCCN2CC(C)ON=C[C@@H](C)[C@H](OCc1ccccc1)C(C)C (some centres not stated)          false (0)

Quick check, composite z-score >= 0.3? C=C(C)C(=O)OC[C@@H]1CN2[C@@H](CC[C@@H](C)[C@@H]2c2ccc(Br)cc2)C(=O)O1 true (1)

Reference source: PubChem BioAssay
